# assay_remarks: The drug is tested on Z-003 corresponding to pig gut metagenome with ENA study accession number: PRJEB37062 and ENA sample accession number: ERS12561803 for biotransformation under anaerobic condition. The drug concentrations were measured over 9 timepoints collected between 0 and 24 hours of incubation by liquid-chromatography-coupled mass spectrometry (LC–MS); further: call rule not given here
# experimental_conditions: 2 µM
Where a SMILES comes first, the peptide text is derived from it. [ ]: non-standard residue; d: D form. pGlu = O=C1CC[C@@H](C(=O)O)N1; Thz = O=C(O)[C@@H]1CSCN1
observable: Bacterial Biotransformation

Here's what some known entries look like.
{"columns": ["compound", "result"],
 "data": [
  ["CC(=O)CC(c1ccccc1)c1c(O)c2ccccc2oc1=O (stereo not drawn)", "Compound metabolized"],
  ["CCCCCCOC(=O)/N=C(/N)c1ccc(NCc2nc3cc(C(=O)N(CCC(=O)OCC)c4ccccn4)ccc3n2C)cc1.CS(=O)(=O)O [DABIGATRAN ETEXILATE MESYLATE]", "Compound NOT metabolized"],
  ["O=C1CC[C@@H](C(=O)N2CSC[C@H]2C(=O)O)N1 [PIDOTIMOD] ([pGlu]-[Thz]-OH)", "Compound NOT metabolized"],
  ["Cc1nc(-c2ccc(OCC(C)C)c(C#N)c2)sc1C(=O)O", "Compound metabolized"],
  ["CO[C@]12C[C@@H](COC(=O)c3cncc(Br)c3)CN(C)[C@@H]1Cc1cn(C)c3cccc2c13", "Compound metabolized"]
]}

Documented Bacterial Biotransformation of CCCC(=O)Nc1ccc(OCC(O)CNC(C)C)c(C(C)=O)c1 (stereo not drawn) : Compound metabolized

Entry O=P(O)(O)O.c1ccc(CN(CC2=NCCN2)c2ccccc2)cc1 [ANTAZOLINE PHOSPHATE] , Bacterial Biotransformation reported as Compound metabolized

Notebook: O=c1[nH]c2ccccc2n1C1CCN(CCCC(c2ccc(F)cc2)c2ccc(F)cc2)CC1 [PIMOZIDE] , Bacterial Biotransformation read as Compound metabolized

* * *

# assay_remarks: The drug is tested on Z-023 corresponding to metagenome with ENA study accession number: PRJEB37062 and ENA sample accession number: ERS12561822 for biotransformation under anaerobic condition. The drug concentrations were measured over 9 timepoints collected between 0 and 24 hours of incubation by liquid-chromatography-coupled mass spectrometry (LC–MS)
# experimental_conditions: 2 µM
observable: Bacterial Biotransformation

Solved cases below.
{"columns": ["compound", "Bacterial Biotransformation"],
 "data": [
  ["CCN(CC)CCOCCOC(=O)C1(c2ccccc2)CCCC1.O=C(O)CC(O)(CC(=O)O)C(=O)O [CARBETAPENTANE CITRATE]", "Compound NOT metabolized"],
  ["CCN(CC)C(=O)/C(C#N)=C/c1cc(O)c(O)c([N+](=O)[O-])c1", "Compound metabolized"],
  ["CN1C(=O)CC(C)(c2ccccc2)C1=O (configuration not stated) [METHSUXIMIDE]", "Compound NOT metabolized"],
  ["COc1ccc2[nH]c([S+]([O-])Cc3ncc(C)c(OC)c3C)nc2n1 (configuration not stated)", "Compound NOT metabolized"],
  ["Cc1nc(-c2ccc(OCC(C)C)c(C#N)c2)sc1C(=O)O", "Compound metabolized"],
  ["CC(CN(C)C)CN1c2ccccc2CCc2ccccc21.O=C(O)/C=C\\C(=O)O (configuration not stated) [TRIMIPRAMINE MALEATE]", "Compound metabolized"],
  ["COC1=CC(=O)C[C@@H](C)[C@]12Oc1c(Cl)c(OC)cc(OC)c1C2=O", "Compound metabolized"],
  ["CC(=O)O[C@]1(C(C)=O)CC[C@H]2[C@@H]3C=C(Cl)C4=CC(=O)[C@@H]5C[C@@H]5[C@]4(C)[C@H]3CC[C@@]21C [CYPROTERONE ACETATE]", "Compound metabolized"]
]}

The measured Bacterial Biotransformation associated with OCCOCCN1CCN(C2=Nc3ccccc3Sc3ccccc32)CC1 reads Compound NOT metabolized

// sample CCC(=O)NCC[C@@H]1CCc2ccc3c(c21)CCO3 , its Bacterial Biotransformation was Compound metabolized

Query CN/C(=N/CCSCc1nc[nH]c1C)NC#N yields Bacterial Biotransformation of Compound NOT metabolized

For this compound ( CC(Oc1c(Cl)cccc1Cl)C1=NCCN1 (configuration not stated) ), measured Bacterial Biotransformation is Compound NOT metabolized

Sure, the documented Bacterial Biotransformation for COCCc1ccc(OCC(O)CNC(C)C)cc1.COCCc1ccc(OCC(O)CNC(C)C)cc1.O=C(O)C(O)C(O)C(=O)O (configuration not stated) [METOPROLOL TARTRATE] is Compound NOT metabolized

Record CN1CCC(=C2c3ccccc3CCc3cccnc32)CC1.O=C(O)/C=C\C(=O)O.O=C(O)/C=C\C(=O)O [AZATADINE MALEATE] . Reported Bacterial Biotransformation: Compound NOT metabolized

Recorded Bacterial Biotransformation (compound CN1CCN(C(=O)O[C@H]2c3nccnc3C(=O)N2c2ccc(Cl)cn2)CC1 ): Compound NOT metabolized

Notebook: C#C[C@]1(O)CC[C@H]2[C@@H]3CCC4=Cc5oncc5C[C@]4(C)[C@H]3CC[C@@]21C , Bacterial Biotransformation read as Compound metabolized

Note to self: Bacterial Biotransformation recorded for CC(C)(C(=O)O)c1ccc(C(O)CCCN2CCC(C(O)(c3ccccc3)c3ccccc3)CC2)cc1 (configuration not stated) [FEXOFENADINE] was Compound metabolized
